- Tested on: Vero E6
- Measurement notes: cell viability relative to DMSO; higher = less toxic
- Condition description: 72 h; 100 nM
Catalogue of cell viability values
Quantity kind: cell viability (%)

Molecule	Quantity kind	Measured value
CCCCCCOc1nsnc1C1=CCCN(C)C1 [xanomeline]	cell viability	106
O=S(=O)(c1ccccc1F)N1CCOc2c(N3CCNCC3)cccc21 [R-1485]	cell viability	99.2
O=C1NCCNC1c1cccs1 (stereo not drawn) [tenilsetam]	cell viability	90.1
COc1ccc(CCN)cc1OC [homoveratrylamine]	cell viability	94.9
OC[C@H]1O[C@@H](n2cnc3c(NC4CCCC4)ncnc32)[C@H](O)[C@@H]1O [N6-cyclopentyladenosine]	cell viability	92.2
O=C(NOCCO)c1cc(CN2OCCCC2=O)c(F)c(F)c1Nc1ccc(I)cc1F	cell viability	61.2
BrC1C(Br)C(Br)C(Br)C(Br)C1Br (stereo not drawn) [1,2,3,4,5,6-hexabromocyclohexane]	cell viability	101
CCOc1ccc2nc(S(N)(=O)=O)sc2c1 [ethoxzolamide]	cell viability	89.4
COc1cc2ncnc(Nc3ccc(O)c(Br)c3)c2cc1OC [WHI-P154]	cell viability	82.8
O=c1cccc2n1C[C@@H]1CNC[C@H]2C1 [cytisine]	cell viability	92.5
NCC(CS(=O)(=O)O)c1ccc(Cl)cc1 (stereo not drawn) [saclofen]	cell viability	103
CC1(C)O[C@H]2CC(=O)OC[C@]23[C@H]2CC[C@@]4(C)[C@H](c5ccoc5)OC(=O)[C@H]5O[C@]54[C@]2(C)C(=O)C[C@@H]13 [limonin]	cell viability	93.7
CN(C)CCOC(C)(c1ccccc1)c1ccccn1 (stereo not drawn) [doxylamine]	cell viability	100
CCC1(CC)C(=O)NC(=O)N(C)C1=O [metharbital]	cell viability	94.1
CCCn1c(=O)c2[nH]c(-c3cnn(Cc4cccc(C(F)(F)F)c4)c3)nc2n(CC)c1=O [GS-6201]	cell viability	96.5
COc1ccc(NS(=O)(=O)c2sc3ccc(Cl)cc3c2C)cc1N1CCNCC1	cell viability	97.6
Cc1cc(-c2nc(C(=O)Nc3cn(C4CCOCC4)nc3C(N)=O)co2)ccn1	cell viability	101
COc1cc2c(cc1O)CC[C@@H]1[C@@H]2CC[C@]2(C)[C@@H](O)CC[C@@H]12 [2-methoxyestradiol]	cell viability	98.9
CCN(CC)CC1CCN(c2ncc3ncnc(Nc4ccc(F)c(Cl)c4)c3n2)CC1 [BIBU-1361]	cell viability	93.1
Clc1cccc(-c2nnnn2Cc2cccnc2)c1Cl	cell viability	104
Oc1ccc2ccccc2c1 [beta-naphthol]	cell viability	98.7
COC(=O)c1ccccc1NC(=O)c1ccc(F)cc1 [EXO-1]	cell viability	91
CC12CCC(CC1=O)C2(C)C (stereo not drawn) [camphor-(+)]	cell viability	99.2
CCOc1ccc(Nc2nc(-c3c(C)nc4ccccn34)cs2)cc1 [JK-184]	cell viability	77.8
CCCCc1cc2ccccc2c(OCCN(C)C)n1 [dimethisoquin]	cell viability	97.3
COc1cc(N)c(Cl)cc1C(=O)NC1CCN(Cc2ccccc2)CC1 [clebopride]	cell viability	102
CCCCCCCCCCCCCCCCNc1ccc(C(=O)O)cc1 [cetaben]	cell viability	94.4
CNC(C)(C)Cc1ccccc1 [mephentermine]	cell viability	97
COc1cc([C@@H]2c3cc4c(cc3[C@@H](O[C@@H]3O[C@@H]5CO[C@@H](c6cccs6)O[C@H]5[C@H](O)[C@H]3O)[C@H]3COC(=O)[C@H]23)OCO4)cc(OC)c1O [teniposide]	cell viability	100
O=C(Nc1cc(C(F)(F)F)cc(C(F)(F)F)c1)Nc1c(Br)cc(Br)cc1-c1nnn[nH]1 [NS-5806]	cell viability	105
O=S(=O)(NCCCCCCc1ccccc1)c1cccc2c(Cl)cccc12 [SC-9]	cell viability	96.8
Cn1nnc(-c2ccc(-c3ccc(N4C[C@H](CO)OC4=O)cc3F)cn2)n1 [tedizolid]	cell viability	98.3
CC[C@]12CCCN3CCc4c(n(c5ccccc45)[C@@](O)(C(=O)OC)C1)[C@@H]32 [vincamine]	cell viability	104
CCO[C@@H](Cc1ccc(OCCn2c(C)ccc2-c2ccc(SC)cc2)cc1)C(=O)O [saroglitazar]	cell viability	88.1
COc1ccccc1Oc1c(NS(=O)(=O)c2ccc(C(C)(C)C)cc2)nc(-c2ncccn2)nc1OCCO [bosentan]	cell viability	94.3
CCCCCC(O)CCCC(=O)O (stereo not drawn)	cell viability	95.1
Cc1cccn2c(=O)c(/C=C(\C#N)c3nc4ccccc4s3)c(Oc3ccc(F)cc3)nc12	cell viability	98.9
COc1cc2c(NC3CCN(C)CC3)nc(N3CCCN(C)CC3)nc2cc1OCCCN(C)C [UNC0224]	cell viability	101

---

- Test system: Caco-2
- Measurement notes: cell viability relative to DMSO; higher = less toxic
- Condition description: 72 h; 1 nM
Catalogue of cell viability values
Quantity kind: cell viability (%)

Compound	Unit annotation	Measured value
CC[C@@]1([C@H]2O[C@H]([C@H]3O[C@@](O)(CO)[C@H](C)C[C@@H]3C)C[C@H]2C)CC[C@H]([C@@]2(C)CC[C@]3(C[C@H](O)[C@@H](C)[C@@H]([C@H](C)[C@H](OC)[C@@H](C)C(=O)O)O3)O2)O1 [MONENSIN SODIUM]	%	93.9
O=C(CCc1ccncc1)NNC(=O)N1Cc2ccccc2Oc2ccc(Cl)cc21	%	88.1
O=c1cc(N2CCOCC2)oc2c(-c3ccccc3)cccc12	%	109
CCn1c(-c2nonc2N)nc2cnc(Oc3cccc(NC(=O)c4ccc(OCCN5CCOCC5)cc4)c3)cc21	%	94.9
CCCCc1cc2ccccc2c(OCCN(C)C)n1	%	107
CCCCCC(O)CCCC(=O)O (stereo unspecified)	%	95.3

---

- Test system: HepG2
- Measurement notes: cell viability relative to DMSO; higher = less toxic
- Condition description: 72 h; 1 nM
Catalogue of cell viability values
Quantity kind: cell viability (%)

Smiles structure	Unit annotation	Measured value
CCCCCCCNS(=O)(=O)c1cccc2c(Cl)cccc12	%	98.3
O=c1cc(-c2ccc(O)cc2)oc2cc(O)cc(O)c12	%	92.8
O=C(O)c1cc(O)c2ccc(Cl)cc2n1	%	106
CO[C@H]1/C=C/O[C@@]2(C)Oc3c(C)c(O)c4c(O)c(c5c(nc6cc(C)ccn65)c4c3C2=O)NC(=O)/C(C)=C\C=C\[C@H](C)[C@H](O)[C@@H](C)[C@@H](O)[C@@H](C)[C@H](OC(C)=O)[C@@H]1C	%	110

---

- Tested on: Vero E6
- Measurement notes: cell viability relative to DMSO; higher = less toxic
- Condition description: 72 h; 10000 nM
Quantity kind: cell viability (%)

Compound	Measured value
c1ccc(CCCN2CCN(CCOC(c3ccccc3)c3ccccc3)CC2)cc1	95.9
COC(=O)N[C@H](C(=O)N1CC2(CC2)C[C@H]1c1nc(-c2ccc3c(c2)C(F)(F)c2cc(-c4ccc5[nH]c([C@@H]6[C@H]7CC[C@H](C7)N6C(=O)[C@@H](NC(=O)OC)C(C)C)nc5c4)ccc2-3)c[nH]1)C(C)C	108
c1ccc2c(Oc3nc(Nc4ccc(N5CCOCC5)cc4)c4ncn(C5CCCCC5)c4n3)cccc2c1	90.1
O=C(N[C@@H]1Cc2ccccc2N(C[C@@H](O)CO)C1=O)c1cc2cc(Cl)sc2[nH]1	90.5
C[C@@H]1CC(=O)c2c(ccc3c2C(=O)c2cccc(O)c2C3=O)C1	85.8
NCC1OC(C23CC4CC(CC(C4)C2)C3)Cc2c1ccc(O)c2O (stereo not given)	58.8
C=C1/C(=C\C=C2/CCC[C@]3(C)[C@@H]([C@H](C)OCCC(C)(C)O)CC[C@@H]23)C[C@@H](O)C[C@@H]1O	94.6
CC(C)C(=O)Nc1ccc([N+](=O)[O-])c(C(F)(F)F)c1 [flutamide]	111
O=S(=O)(O)CCSSCCS(=O)(=O)O	100
O=C1CN=C(c2cccc(Br)c2)c2oc3ccccc3c2N1	95.9
CCCCCCNC(=O)n1cc(F)c(=O)[nH]c1=O	58.8
CC(/C=C/C(=O)NO)=C\[C@@H](C)C(=O)c1ccc(N(C)C)cc1	-0.1
COc1cc(SC)ccc1C(=O)N1CCC(Cc2ccccc2)CC1	94.8
CCOC(=O)c1c[nH]cn1	100
COc1cc(N)c(Cl)cc1C(=O)NC1CCN(Cc2ccccc2)CC1 [clebopride]	98.1
CCO[C@@H](Cc1ccc(OCCn2c(C)ccc2-c2ccc(SC)cc2)cc1)C(=O)O	95.2
CC(C)(C)N1CCC(c2ccccc2)(c2ccccc2)CC1	98.8
CC(=O)Nc1cccc(-n2c(=O)n(C3CC3)c(=O)c3c(Nc4ccc(I)cc4F)n(C)c(=O)c(C)c32)c1	15.8
CCCCCC(=O)O[C@]1(C(C)=O)CC[C@H]2[C@@H]3CCC4=CC(=O)CC[C@]4(C)[C@H]3CC[C@@]21C [17-hydroxyprogesterone-caproate]	103
CC1(C)O[C@H]2CC(=O)OC[C@]23[C@H]2CC[C@@]4(C)[C@H](c5ccoc5)OC(=O)[C@H]5O[C@]54[C@]2(C)C(=O)C[C@@H]13	104
CCCN(C/C=C/I)[C@H]1CCc2ccc(O)cc2C1 [7-hydroxy-PIPAT]	96
OCc1ccc(O[C@@H]2O[C@H](CO)[C@@H](O)[C@H](O)[C@H]2O)cc1	95.3
CC[C@]12CCCN3CCc4c(n(c5ccccc45)[C@@](O)(C(=O)OC)C1)[C@@H]32	97.7
O=c1oc2c(O)c(O)cc3c(=O)oc4c(O)c(O)cc1c4c23	107
O=C(O)c1ccccc1NC(=O)N1CCC(c2ccccc2C(F)(F)F)CC1	93.5
CCOC(=O)c1ccc(NC2CCCCC2)c(N)c1	100
CCOc1ccc2nc(S(N)(=O)=O)sc2c1 [ethoxzolamide]	116
CCOC(=O)COc1ccc2c(=O)cc(-c3ccccc3)oc2c1 [efloxate]	106
CC(C)n1nc(-c2ccc3oc(N)nc3c2)c2c(N)ncnc21	16.5
CN(CCOc1ccc(CC2SC(=O)NC2=O)cc1)c1ccccn1 (stereo not given)	81.3
CC12CCC(CC1=O)C2(C)C (stereo not drawn) [camphor-(+)]	101
O=C1C(CC[S+]([O-])c2ccccc2)C(=O)N(c2ccccc2)N1c1ccccc1 (stereo not given)	103
FC(F)(F)c1ccc(CNc2ccc(Cc3c[nH]c4ncccc34)cn2)cc1	96.8
CN(C)CCOC(C)(c1ccccc1)c1ccccn1 (stereo not given)	99.6
O=C(Nc1cc(C(F)(F)F)cc(C(F)(F)F)c1)Nc1c(Br)cc(Br)cc1-c1nnn[nH]1	102
